system: Fibroblast; assay: Multiplex assay against human fibroblast; type: toxicity, cell-based; conditions: 12 h, 10 µM, compound concentration 10 uM, replicate 1
Reported Endpoint: Population Pyknosed Nuclei (%)
Write the number in % without appending the unit.

// below: answered compounds
Compound: O=C(Nc1ccc(-c2ccnc(Nc3ccc(N4CCOCC4)cc3)n2)cc1)[C@@H]1CCCN1
Study Target: Fibroblast
Recorded Number: 33
//
Compound: COc1cccc2cc(-c3nc([C@H]4CC[C@H](C(=O)O)CC4)n4ncnc(N)c34)[nH]c12
Study Target: Fibroblast
Recorded Number: 14
//
Compound: CCCS(=O)(=O)c1nc(NC2CC2)cc(-c2ccc3c(ccn3C3CC(C)(C)NC(C)(C)C3)c2)n1
Study Target: Fibroblast
Recorded Number: 53
//
Compound: CCCS(=O)(=O)Nc1ccc(F)c(C(=O)c2c[nH]c3ncc(Cl)cc23)c1F
Study Target: Fibroblast
Recorded Number: 13
//
Compound: O=C(Nc1ccc(-n2nc(-c3cccnc3)cc2C(F)(F)F)cn1)c1ccc(-c2ccccc2)c(F)c1
Study Target: Fibroblast
Recorded Number: 46
//
Compound: CCCn1c(=O)c2[nH]c(-c3cnn(Cc4cccc(C(F)(F)F)c4)c3)nc2n(CC)c1=O
Study Target: Fibroblast
Recorded Number: 33

// lookup Population Pyknosed Nuclei (%) for `COc1cc(N2CCN(C)CC2)ccc1Nc1ncc2c(n1)N(C)c1ccccc1C(=O)N2C`
28

Can you handle CCOC(=O)c1c(C)[nH]c2ccc3c(c12)CN1CCc2cc(OC)ccc2C1O3 (stereo not given) next?
43

Can you handle `CNC(=O)c1ccc(Nc2nc(OC3CCCC3)c3c(-c4ccc5nc(C)oc5c4)c[nH]c3n2)c(OC)c1` next?
16

Can you handle COc1cc2ncnc(Nc3ccc(F)c(Cl)c3)c2cc1NC(=O)/C=C/CN1CCCCC1 [DACOMITINIB ANHYDROUS] next?
15

---

Documented Total Cell Count across a set of molecules
system: Fibroblast; experiment: Multiplex assay against human fibroblast; format: toxicity, cell-based; settings: 24 h, 10 µM, compound concentration 10 uM, replicate 1
Kindly provide the number alone.

// below: answered molecules
Molecule: COc1ccc(S(=O)(=O)N(CCO)c2ccccc2CN(C)C/C=C/c2ccc(Cl)cc2)cc1.O=P(O)(O)O
Recorded Number: 186
//
Molecule: Cc1ccc(C(=O)Nc2cccc(C(F)(F)F)c2)cc1Nc1nc(-c2cccnc2)nc2c1cnn2C
Recorded Number: 124

// lookup Total Cell Count for `Cn1nc(C(F)(F)F)cc1-c1cnc(N2CCc3cc(S(=O)(=O)Nc4c(F)cc(Cl)cc4F)cc(N4CCCC4=O)c32)nc1`
188

Can you handle CN1C2CCC1CC(OC(c1ccc(F)cc1)c1ccc(F)cc1)C2.Cl (centres undefined) next?
160

---

test system: U2OS; assay: Multiplex assay against U2OS; format: toxicity, cell-based; conditions: human, 12 h, 1 µM, compound concentration 1 uM, replicate 2
Reported Endpoint: Population Mitochondria Different-Phenotype (%)
Write the number in % without appending the unit.

Smiles Str: Cl.Oc1ccc2c3c1O[C@H]1c4[nH]c5c(c4C[C@@]4(O)[C@@H](C2)N(CC2CC2)CC[C@]314)C[C@@]1(O)[C@H]2Cc3ccc(O)c4c3[C@@]1(CCN2CC1CC1)[C@H]5O4
Display Unit: %
Recorded Number: 19
--
Smiles Str: O=C(Nc1ccc(-n2nc(-c3cccnc3)cc2C(F)(F)F)cn1)c1ccc(-c2ccccc2)c(F)c1
Display Unit: %
Recorded Number: 7
--
Smiles Str: CCCS(=O)(=O)c1nc(NC2CC2)cc(-c2ccc3c(ccn3C3CC(C)(C)NC(C)(C)C3)c2)n1
Display Unit: %
Recorded Number: 41
--
Smiles Str: CCCn1c(=O)c2[nH]c(-c3cnn(Cc4cccc(C(F)(F)F)c4)c3)nc2n(CC)c1=O
Display Unit: %
Recorded Number: 9

For U2OS, provide Population Mitochondria Different-Phenotype (%) of `Cl.O=C(c1ccc(Nc2nccc(-c3cc4ccccc4s3)n2)cc1)N1CCC(N2CCCC2)CC1` please.
19

Can you handle `Cc1ccc(C(=O)Nc2cccc(C(F)(F)F)c2)cc1Nc1nc(-c2cccnc2)nc2c1cnn2C` next?
25

---

Documented Population Pyknosed Nuclei (%) across a set of compounds
system: U2OS; experiment: Multiplex assay against U2OS; format: toxicity, cell-based; settings: human, 48 h, 10 µM, compound concentration 10 uM, replicate 1
Write the number in % without appending the unit.

// below: answered compounds
Compound: CN1C2CCC1CC(OC(c1ccc(F)cc1)c1ccc(F)cc1)C2.Cl (stereo not drawn)
Population Pyknosed Nuclei (%): 15
//
Compound: O=C(Nc1ccc(-c2ccnc(Nc3ccc(N4CCOCC4)cc3)n2)cc1)[C@@H]1CCCN1
Population Pyknosed Nuclei (%): 26
//
Compound: COc1cc(N2CCN(C)CC2)ccc1Nc1ncc2c(n1)N(C)c1ccccc1C(=O)N2C
Population Pyknosed Nuclei (%): 35

Now for the compound whose Population Pyknosed Nuclei (%) we want.
// lookup Population Pyknosed Nuclei (%) for `O=C(Nc1ccc(Cl)cc1)Nc1cccc(-c2cccc(N3CCCC3)n2)c1`
44

---

Documented Population Pyknosed Nuclei (%) across a set of compounds
test system: Fibroblast; test: Multiplex assay against human fibroblast; format: toxicity, cell-based; details: 12 h, 10 µM, compound concentration 10 uM, replicate 2
Write the number in % without appending the unit.

Compound: CCOc1cc2ncc(C#N)c(Nc3ccc(OCc4ccccn4)c(Cl)c3)c2cc1NC(=O)/C=C/CN(C)C
Display Unit: %
Population Pyknosed Nuclei (%): 13

// lookup Population Pyknosed Nuclei (%) for `CCn1cc(-c2ccnc3[nH]c(-c4cccc(CN(C)C)c4)cc23)c(-c2ccc(NC(=O)N(C)C)cc2)n1`
9

Can you handle `Cn1nc(C(F)(F)F)cc1-c1cnc(N2CCc3cc(S(=O)(=O)Nc4c(F)cc(Cl)cc4F)cc(N4CCCC4=O)c32)nc1` next?
8

Can you handle `NC(=O)c1cccc(-c2cc(Nc3ccc(OC(F)(F)F)cc3)ncn2)c1` next?
26

Can you handle `CN1CCN(C(=O)C(C)(C)c2ccc(C(=O)Nc3cn4cc(-c5cc(C(C)(C)C)cc(C(C)(C)C)c5)ccc4n3)cc2)CC1` next?
28

Can you handle `COc1ccc(S(=O)(=O)N(CCO)c2ccccc2CN(C)C/C=C/c2ccc(Cl)cc2)cc1.O=P(O)(O)O` next?
3

Can you handle COc1cc2ncnc(Nc3ccc(F)c(Cl)c3)c2cc1NC(=O)/C=C/CN1CCCCC1 [DACOMITINIB ANHYDROUS] next?
11

Can you handle `O=C(Nc1cccnn1)N1CCC(=Cc2cccc(Oc3ccc(C(F)(F)F)cn3)c2)CC1` next?
12

---

system: Fibroblast; assay: Multiplex assay against human fibroblast; assay type: toxicity, cell-based; conditions: 12 h, 10 µM, compound concentration 10 uM, replicate 2
Reported Endpoint: Population Mitochondria Different-Phenotype (%)
Write the number in % without appending the unit.

// below: answered molecules
Smiles Str: CCCn1c(=O)c2[nH]c(-c3cnn(Cc4cccc(C(F)(F)F)c4)c3)nc2n(CC)c1=O
Recorded Number: 20
--
Smiles Str: O=C(Nc1cccnn1)N1CCC(=Cc2cccc(Oc3ccc(C(F)(F)F)cn3)c2)CC1
Recorded Number: 12
--
Smiles Str: COCC(=O)NC/C=C/c1ccc2ncnc(Nc3ccc(Oc4ccc(C)nc4)c(C)c3)c2c1
Recorded Number: 94

Now for the molecule whose Population Mitochondria Different-Phenotype (%) we want.
// lookup Population Mitochondria Different-Phenotype (%) for `C=C1/C(=C\C=C2/CCC[C@]3(C)[C@@H]([C@H](C)/C=C/[C@H](C)C(C)C)CC[C@@H]23)C[C@@H](O)C[C@@H]1O`
21

---

system: U2OS; experiment: Multiplex assay against U2OS; assay type: toxicity, cell-based; conditions: human, 24 h, 10 µM, compound concentration 10 uM, replicate 2
Documented Population Mitochondria Different-Phenotype (%) across a set of compounds
Write the number in % without appending the unit.

// below: answered compounds
Compound: COc1ccc(S(=O)(=O)N(CCO)c2ccccc2CN(C)C/C=C/c2ccc(Cl)cc2)cc1.O=P(O)(O)O
Study Target: U2OS
Recorded Number: 26
//
Compound: CCOc1cc(C(=O)N2CCC(N3CCN(C)CC3)CC2)ccc1Nc1ncc2c(n1)N(C1CCCC1)c1ccccc1C(=O)N2C
Study Target: U2OS
Recorded Number: 96
//
Compound: O=C1NC(=O)C(c2cnc3ccccn23)=C1c1cn2c3c(cc(F)cc13)CN(C(=O)N1CCCCC1)CC2
Study Target: U2OS
Recorded Number: 96
//
Compound: Cc1cn(-c2cc(NC(=O)c3ccc(C)c(Nc4nccc(-c5cccnc5)n4)c3)cc(C(F)(F)F)c2)cn1
Study Target: U2OS
Recorded Number: 42
//
Compound: O=C1N/C(=N/c2ccccc2F)S/C1=C\c1ccc(C(=O)O)cc1
Study Target: U2OS
Recorded Number: 6

For U2OS, provide Population Mitochondria Different-Phenotype (%) of `COc1ccc(-c2ccc3c(N4CCOCC4)nc(N4C[C@@H](C)O[C@@H](C)C4)nc3n2)cc1CO` please.
9

Can you handle `Cc1cc(C)c(S(=O)(=O)N(Cc2ccc(-c3cccc(S(C)(=O)=O)c3)cc2)Cc2ccc(C(F)(F)F)o2)c(C)c1` next?
10

Can you handle COc1cc2ncnc(Nc3ccc(F)c(Cl)c3)c2cc1NC(=O)/C=C/CN1CCCCC1 [DACOMITINIB ANHYDROUS] next?
24

Can you handle `CCc1cccc(CC)c1NC(=O)c1nn(C)c2c1CCc1cnc(Nc3ccc(C(=O)NC4CCN(C)CC4)cc3OC(F)(F)F)nc1-2` next?
91

Can you handle `CCCn1c(=O)c2[nH]c(-c3cnn(Cc4cccc(C(F)(F)F)c4)c3)nc2n(CC)c1=O` next?
11

Can you handle `NC(=O)c1cccc(-c2cc(Nc3ccc(OC(F)(F)F)cc3)ncn2)c1` next?
25

Can you handle CN1CCC(=C2c3ccccc3CC(=O)c3sccc32)CC1.O=C(O)/C=C/C(=O)O [KETOTIFEN FUMARATE] next?
98

Can you handle `CCN1CCN(Cc2ccc(Nc3ncc(F)c(-c4cc(F)c5nc(C)n(C(C)C)c5c4)n3)nc2)CC1.CS(=O)(=O)O` next?
87

Can you handle `CCn1cc(-c2ccnc3[nH]c(-c4cccc(CN(C)C)c4)cc23)c(-c2ccc(NC(=O)N(C)C)cc2)n1` next?
87

Can you handle CN(C)C(=O)C(CCN1CCC(O)(c2ccc(Cl)cc2)CC1)(c1ccccc1)c1ccccc1.Cl [LOPERAMIDE HYDROCHLORIDE] next?
95

Can you handle `CCn1c(=O)c(-c2ccc(-c3cncs3)cc2Cl)cc2cnc(Nc3ccc(N4CCN(C)CC4)cc3)nc21` next?
23

Can you handle `COCC(=O)NC/C=C/c1ccc2ncnc(Nc3ccc(Oc4ccc(C)nc4)c(C)c3)c2c1` next?
96
